Entry source: patent US10278911B2

# Target or test system: human placental αVβ3 (Homo sapiens, UniProt P05106+P06756)
# Construct: Purified human integrin αVβ3 from term placenta
# Sequence (P06756 31-889 limits assumed): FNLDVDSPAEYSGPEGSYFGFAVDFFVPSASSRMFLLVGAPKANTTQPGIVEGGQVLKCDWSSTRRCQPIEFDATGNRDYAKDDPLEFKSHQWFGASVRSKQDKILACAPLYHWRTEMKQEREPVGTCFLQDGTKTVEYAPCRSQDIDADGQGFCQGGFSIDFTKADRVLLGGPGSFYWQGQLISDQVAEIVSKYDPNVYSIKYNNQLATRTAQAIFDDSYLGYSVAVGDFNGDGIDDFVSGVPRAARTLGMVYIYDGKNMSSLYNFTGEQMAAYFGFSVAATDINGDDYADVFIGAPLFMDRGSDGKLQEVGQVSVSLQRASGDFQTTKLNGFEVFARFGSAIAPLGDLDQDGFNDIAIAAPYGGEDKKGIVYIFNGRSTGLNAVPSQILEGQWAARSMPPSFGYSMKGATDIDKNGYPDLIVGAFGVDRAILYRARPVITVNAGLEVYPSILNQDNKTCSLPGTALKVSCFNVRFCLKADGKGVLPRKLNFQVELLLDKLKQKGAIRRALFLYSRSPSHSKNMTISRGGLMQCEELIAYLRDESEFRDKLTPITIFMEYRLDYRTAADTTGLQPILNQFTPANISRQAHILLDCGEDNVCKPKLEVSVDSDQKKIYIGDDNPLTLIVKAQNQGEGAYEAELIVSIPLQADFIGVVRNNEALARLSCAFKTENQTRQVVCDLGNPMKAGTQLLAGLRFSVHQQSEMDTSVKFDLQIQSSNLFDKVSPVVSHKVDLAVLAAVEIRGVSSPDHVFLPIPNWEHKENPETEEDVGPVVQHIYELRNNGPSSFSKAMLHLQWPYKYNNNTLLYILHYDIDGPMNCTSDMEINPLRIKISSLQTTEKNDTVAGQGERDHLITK
# Sequence (P06756 891-1048 partner limits assumed): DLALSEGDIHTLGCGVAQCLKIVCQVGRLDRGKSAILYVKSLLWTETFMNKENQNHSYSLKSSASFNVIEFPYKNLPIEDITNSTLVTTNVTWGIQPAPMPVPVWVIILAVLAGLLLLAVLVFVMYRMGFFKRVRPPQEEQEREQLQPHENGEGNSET
# Sequence (P05106 27-788): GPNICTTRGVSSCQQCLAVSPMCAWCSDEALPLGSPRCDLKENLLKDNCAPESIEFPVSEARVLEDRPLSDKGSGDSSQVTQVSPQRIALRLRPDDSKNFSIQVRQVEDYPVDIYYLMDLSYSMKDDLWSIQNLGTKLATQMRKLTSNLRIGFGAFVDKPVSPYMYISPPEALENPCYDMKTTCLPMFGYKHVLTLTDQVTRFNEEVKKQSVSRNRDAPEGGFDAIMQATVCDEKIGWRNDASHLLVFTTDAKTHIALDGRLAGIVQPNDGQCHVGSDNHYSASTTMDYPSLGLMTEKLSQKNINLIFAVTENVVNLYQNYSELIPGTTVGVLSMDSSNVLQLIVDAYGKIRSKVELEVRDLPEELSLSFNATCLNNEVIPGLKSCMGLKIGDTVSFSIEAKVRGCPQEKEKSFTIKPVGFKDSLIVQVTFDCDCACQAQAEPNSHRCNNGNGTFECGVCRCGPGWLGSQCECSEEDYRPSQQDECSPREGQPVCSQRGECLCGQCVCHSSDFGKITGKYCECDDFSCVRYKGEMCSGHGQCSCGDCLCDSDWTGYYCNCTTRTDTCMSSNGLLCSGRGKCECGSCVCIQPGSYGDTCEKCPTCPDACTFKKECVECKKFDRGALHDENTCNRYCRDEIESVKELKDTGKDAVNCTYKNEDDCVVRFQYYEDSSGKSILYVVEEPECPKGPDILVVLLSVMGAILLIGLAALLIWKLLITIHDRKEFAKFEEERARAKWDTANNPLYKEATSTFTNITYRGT
# Assay overview: Receptor inhibition assay, binding of biotinylated ligands to human placental αVβ3
# Test parameters: purified human placental αVβ3, biotinylated vitronectin, 3 h at 30° C.; read-out: IC50 VN: αvβ3

| Compound | IC50 |
| --- | --- |
| CC(C)(C)[C@@H]1NC(=O)[C@@H](Cc2ccc(F)cc2)NC(=O)[C@H](CC(=O)O)NC(=O)CNC(=O)[C@H](CCCNC(=N)N)NC1=O [Cyclo-(Arg-Gly-Asp-DPhe(4-F)-Tle)] | 3 nM |

###

# Target or test system: vitronectin receptor aVβ3 (Homo sapiens, UniProt P05106+P06756)
# Construct: Integrin αVβ3 is purified from human placental extracts
# Sequence (P06756 31-889 limits assumed): as the sequence (P06756 31-889 limits assumed) above
# Sequence (P06756 891-1048 partner limits assumed): as the sequence (P06756 891-1048 partner limits assumed) above
# Sequence (P05106 27-788): as the sequence (P05106 27-788) above
# Assay overview: Pentapeptides as inhibitors of αVβ3 (immobilized), solid-phase inhibition assay
# Test parameters: αVβ3 from human placental extracts, binding of vitronectin, read-out: IC50 VN: αvβ3
Non-standard residues stand in square brackets, D forms with d. Residues, ends and D or L forms follow the SMILES beside them.

| Compound | Target or test system | IC50 |
| --- | --- | --- |
| CC(C)[C@@H]1NC(=O)[C@H](Cc2ccccc2)NC(=O)[C@H](CC(=O)O)NC(=O)[C@@H](C)NC(=O)[C@H](CCCNC(=N)N)NC1=O [Cyclo-(Arg-DAla-Asp-Phe-Val)] (cyclo(R[dA]DFV)) | vitronectin receptor aVβ3 (Homo sapiens, UniProt P05106+P06756) | > 240 µM |

###

# Target or test system: integrin αVβ3 (Homo sapiens, UniProt P05106+P06756)
# Sequence (P06756 31-1048): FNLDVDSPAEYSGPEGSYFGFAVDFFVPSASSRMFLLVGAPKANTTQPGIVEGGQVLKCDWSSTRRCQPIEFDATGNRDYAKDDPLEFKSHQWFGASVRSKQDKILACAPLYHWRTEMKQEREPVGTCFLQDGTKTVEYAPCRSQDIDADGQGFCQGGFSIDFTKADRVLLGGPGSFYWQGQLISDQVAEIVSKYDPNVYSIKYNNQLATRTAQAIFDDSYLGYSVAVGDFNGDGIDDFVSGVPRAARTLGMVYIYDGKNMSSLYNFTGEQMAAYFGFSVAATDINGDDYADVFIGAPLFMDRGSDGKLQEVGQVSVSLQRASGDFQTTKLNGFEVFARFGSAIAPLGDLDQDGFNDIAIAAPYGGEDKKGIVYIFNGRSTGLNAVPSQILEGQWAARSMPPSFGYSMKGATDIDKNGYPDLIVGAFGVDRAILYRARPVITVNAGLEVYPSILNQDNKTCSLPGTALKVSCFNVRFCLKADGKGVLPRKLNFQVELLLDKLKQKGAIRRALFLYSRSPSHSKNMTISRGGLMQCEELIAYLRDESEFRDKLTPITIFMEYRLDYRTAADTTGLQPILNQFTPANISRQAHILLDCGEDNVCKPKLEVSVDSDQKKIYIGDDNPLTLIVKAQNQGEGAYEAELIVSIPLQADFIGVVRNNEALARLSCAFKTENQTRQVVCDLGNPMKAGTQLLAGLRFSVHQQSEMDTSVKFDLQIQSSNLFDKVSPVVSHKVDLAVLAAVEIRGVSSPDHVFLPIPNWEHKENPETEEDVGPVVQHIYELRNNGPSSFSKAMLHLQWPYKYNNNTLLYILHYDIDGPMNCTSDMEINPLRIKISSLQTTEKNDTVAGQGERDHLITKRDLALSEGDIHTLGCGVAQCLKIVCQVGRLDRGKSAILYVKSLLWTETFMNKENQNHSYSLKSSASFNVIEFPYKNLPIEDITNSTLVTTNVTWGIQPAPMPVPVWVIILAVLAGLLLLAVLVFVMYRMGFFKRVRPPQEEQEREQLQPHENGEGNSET
# Sequence (P05106 27-788): as the sequence (P05106 27-788) above
# Assay overview: Isolated integrin-ligand binding assay (ligand inhibition, immobilized integrin, biotinylated vitronectin)
# Test parameters: immobilized recombinant human integrin, biotinylated human serum vitronectin as ligand
pIC50: −log10 of the molar value.
Endpoint name: pIC50

| Mol | Numeric readout |
| --- | --- |
| C[C@H]1C(=O)N[C@@H](CCCNC(=N)N)C(=O)NCC(=O)N[C@@H](CC(=O)O)C(=O)N[C@H](Cc2ccccc2)C(=O)N1C | 7.62 |
